- test-name: protein stability index of a GFP-peptide fusion (GPS, HEK-293T) (PSI 1-6); higher = more stable;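 also: 24-mer peptide tiles fused after GFP, lentivirally expressed, FACS-sorted into six equal bins by GFP/DsRed ratio, decoded by Illumina sequencing, PSI is the read-weighted mean bin number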
- test-context: treatment: MLN4924 1 uM, 8 h; c terminus: a fixed tail appended
Records here are stratified by protein stability index; strata: low class (below 3), middle class (3 to below 5), high class (5 or more)

Problem: Into which bin does this sequence go? YIPVIKRALNSVPVIIAAVGTRQN [RHOBTB3]
Result: low class

Problem: Into which bin does this sequence go? LEVINLLRKHRELCDVVLVVGAKK [KLHL20]
Result: low class

Problem: Into which bin does this sequence go? RHQRTHTGEKPYQCNICGKCFSCN [ZNF263]
Result: middle class

Problem: Into which bin does this sequence go? LGNGLLRKKTLVPGPPGSSRPVKG [FKBP8]
Result: middle class

Problem: Into which bin does this sequence go? SWAKSIPGFSSLSLSDQMSVLQSV [ESRRA]
Result: low class

Problem: Into which bin does this sequence go? LEFAYYFRPGHLLANACLPVRTTN [ZSWIM9]
Result: low class

Problem: Into which bin does this sequence go? LGHREPSAHPVEVFSFDLHEPLSK [TMEM175]
Result: middle class

Problem: Into which bin does this sequence go? ANNDHTVLSLACAGGHLAVVELLL [ANKRD17]
Result: low class

Problem: Into which bin does this sequence go? TPDTRHPCSLGSSLVADYSDSESE [YJU2B]
Result: high class

Problem: Into which bin does this sequence go? WPARVLDISLGQKEDGEPSWREAK [PWWP2B]
Result: middle class

Problem: Into which bin does this sequence go? NHTTVTNSTPLRAACFDGRLDIVK [FEM1B]
Result: middle class

Problem: Into which bin does this sequence go? ERDRDPCGGSGGGGGGGGGGGGCS [LURAP1L]
Result: high class

Problem: Into which bin does this sequence go? PSEKKVAIIRTPPKSPATPKQLRL [MAP2]
Result: middle class

Problem: Into which bin does this sequence go? PSGAGKTVVGVPSGKVSSSSSSLG [ZC2HC1A]
Result: middle class

Problem: Into which bin does this sequence go? IGWFPSNYVLEEVDEAAAESPSFL [NCK2]
Result: middle class

Problem: Into which bin does this sequence go? RFALRFIRPDPRSRVTDPVGDIVS [FAF2]
Result: low class

Problem: Into which bin does this sequence go? NVQTEFPGEDENPEKASELSQVEL [TRIM55]
Result: high class

Problem: Into which bin does this sequence go? VPVDTGVAARTPAVEGLTEAEEEE [TPD52L2]
Result: high class

Problem: Into which bin does this sequence go? VHEFCAGRECQPRWETSSWSECSR [ADAMTSL2]
Result: low class

Problem: Into which bin does this sequence go? APGSSVEYQCQNLYQLEGNNQITC [CFHR2]
Result: middle class

---

Each entry below lists one item and its recorded protein stability index value.
- test-name: protein stability index of a GFP-peptide fusion (GPS, HEK-293T) (PSI 1-6); higher = more stable
- test-context: treatment: DMSO; c terminus: a fixed tail appended
Answer with a number only.

Problem: // query protein stability index value for entry LDASGEKMNGSHRDQGSSALSGVG [IKZF1]
Result: 4.97

Problem: // query protein stability index value for entry GRCTVRDFIHRHCQDQNVPVENFF [SDE2]
Result: 2.51

Problem: // query protein stability index value for entry LQRWCRAKHMGLEPPPEVWQVLKT [POLD4]
Result: 2.28

Problem: // query protein stability index value for entry FIRCSLQCRDLVDEAKKFHLRPEL [KLHL12]
Result: 2.67

Problem: // query protein stability index value for entry DERRDAEERASLAGNRNSMVIHIP [KCNK9]
Result: 4.24

Problem: // query protein stability index value for entry IRSSFISSLSFFLKKMGKRLDYLN [FBXO39]
Result: 2.71

Problem: // query protein stability index value for entry LCSPGHERRGTPADTEEPTKDPDV [PSD2]
Result: 5.66

Problem: // query protein stability index value for entry LGVQTGGPGGRRAGEPGHSPADYL [DYRK1B]
Result: 4.34
